# System: HEK293
# PROCEDURE TEXT: Cytotoxic Profiling of Annotated Libraries Using Quantitative High-Throughput Screening (AID 1296008); further: nearly all actives have a fitted effect of over 60% in size
# RECORDED CONDITIONS: Five cell lines viability, CellTiter-Glo ATP luminescence, 48-72 h
Results filed as inconclusive are left out. Activity calls are given as the source filed them. The call rests on the fitted dose curve; in most records, active means well fitted inhibition curve with a large enough effect; inconclusive means small, poorly fitted or top-dose-only effect; inactive means flat fitted curve, though single readings scatter.
// classify into label 1 = active, label 0 = inactive

## Input Assay result, entry O=S(=O)(c1cccc2cnccc12)N1CCCNCC1 — outcome?
## Output label 0

## Input Okay, and O=c1oc2c(O)c(O)cc3c(=O)oc4c(O)c(O)cc1c4c23 ?
## Output label 0

## Input // same read-out, input: CCN(C)C(=O)Oc1cccc([C@H](C)N(C)C)c1
## Output label 0

## Input Same again, this time with CCn1cc(C(=O)O)c(=O)c2cc(F)c(N3CCNCC3)nc21
## Output label 0

## Input Same for CS(=O)(=O)c1ccc([C@@H](O)[C@@H](CO)NC(=O)C(Cl)Cl)cc1
## Output label 1

## Input Repeat for the following molecule: OCc1ccc(-c2nn(Cc3ccccc3)c3ccccc23)o1
## Output label 1

## Input Moving on to CC(=O)CC(c1ccccc1)c1c(O)c2ccccc2oc1=O (centres undefined)
## Output label 0

## Input What do you get for NS(=O)(=O)c1cc2c(cc1Cl)NC(C(Cl)Cl)NS2(=O)=O (centres undefined) ?
## Output label 0

## Input Now give it for C1CCC(C(CC2CCCCN2)C2CCCCC2)CC1 (centres undefined) too.
## Output label 1

## Input Please do the same for CCOC(=O)[C@H](CCc1ccccc1)N[C@H]1CCc2ccccc2N(CC(=O)O)C1=O as well.
## Output label 1

## Input And then CC[C@H](NC(C)C)[C@H](O)c1ccc(O)c2[nH]c(=O)ccc12 , what is it?
## Output label 0

## Input Now the molecule CCOC(=O)[C@H](CCc1ccccc1)N[C@H]1CS[C@H](c2cccs2)CN(CC(=O)O)C1=O
## Output label 0

## Input Note, next up: O=C(O)CSCC(=O)NC1CCSC1=O (centres undefined)
## Output label 0

## Input What do we get for CCCN[C@H]1CCc2nc(N)sc2C1 ?
## Output label 0

## Input Next entry: CCOc1cc(N)c(Cl)cc1C(=O)NCC1CN(Cc2ccc(F)cc2)CCO1 (centres undefined)
## Output label 0

## Input What do you get for Cc1noc(NS(=O)(=O)c2ccc(N)cc2)c1C ?
## Output label 0

## Input # repeat for CCN[C@H]1C[C@H](C)S(=O)(=O)c2sc(S(N)(=O)=O)cc21
## Output label 0

## Input And what about the molecule CCn1cc(C(=O)O)c(=O)c2cc(F)c(N3CCN(C)CC3)cc21 ?
## Output label 0

## Input Try this molecule too: CC(C)(Sc1cc(C(C)(C)C)c(O)c(C(C)(C)C)c1)Sc1cc(C(C)(C)C)c(O)c(C(C)(C)C)c1
## Output label 0

## Input Lookup S=P(N1CC1)(N1CC1)N1CC1
## Output label 1

## Input And O=P(O)(O)C(O)(Cc1cccnc1)P(=O)(O)O ?
## Output label 0

## Input Also CNNCc1ccc(C(=O)NC(C)C)cc1 , if possible.
## Output label 0

## Input Another: C#CCN[C@@H]1CCc2ccccc21
## Output label 0

## Input Here is the next molecule: C[C@@H](CN1CC(=O)NC(=O)C1)N1CC(=O)NC(=O)C1
## Output label 1

## Input # iterate: CN1CCN(c2c(F)cc3c(=O)c(C(=O)O)cn4c3c2OCN4C)CC1
## Output label 0

## Input Consider next the molecule CN(CCOc1ccc(CC2SC(=O)NC2=O)cc1)c1ccccn1 (centres undefined) in the same way.
## Output label 0

## Input Try this molecule next: COc1cc2ncnc(Nc3cccc(Cl)c3)c2cc1OC
## Output label 1

## Input And COc1nc(N)nc2c1ncn2[C@@H]1O[C@H](CO)[C@@H](O)[C@@H]1O ?
## Output label 0

## Input And then CC(=O)[C@H]1CC[C@H]2[C@@H]3CCC4=CC(=O)CC[C@]4(C)[C@H]3CC[C@]12C , what is it?
## Output label 1
